- Tested on: LRRK2
- Particulars: concentration: 1 μM, replicates: in singlicate; n = 1;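 further: KINOMEscan kinase panel screen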
Reported metric: %Inh (%)
Output spec: scalar in %, unitless text.

Bench note, LRRK2: entry "COc1ccc(Nc2nccc(-c3cccc(NC(=O)c4cc5cc(F)ccc5[nH]4)c3)n2)cc1" , its %Inh = 42

---

- Test system: NEK4
- Particulars: concentration: 1 μM, replicates: in singlicate; n = 1
Decide by %Inh: equal to or exceeding 1% means rule met, less means rule not met.

Consider the following illustrative entries.
CC(C)(C)c1ccc(C(=O)Nc2cn3cc(Cl)ccc3n2)cc1 = rule not met
Cc1c(O)cccc1Nc1ccnc2ccc(C(F)(F)F)cc12.Cl [GW466413] = rule not met
O=C(Nc1ccccc1)Nc1cccc(Oc2ccc3nccn3n2)c1 = rule not met
Cl.Oc1ccc(-c2nc(-c3ccccc3)[nH]c2-c2ccncc2)cc1 [SB-428218] = rule met
Cc1ccc(NC(=O)Nc2cc(C(C)(C)C)nn2-c2ccccc2)cc1 [GSK1014915] = rule met
Cc1cc(-c2ccc3c(c2)CC[C@@H](N[C@@H](C)c2ccccc2)C3)cnc1N.Cl [GW412617] = rule met
Cc1cc(NCC(c2ccccc2)c2ccccc2)nc(NCc2ccc(C(F)(F)F)cc2)n1 [GW497681] = rule not met
Cc1ccc(C(=O)Nc2ccc(Nc3ccnc4cc(-c5ccccn5)ccc34)cc2O)cc1.Cl [GW440146] = rule met
O=C(Nc1n[nH]c2nc(-c3nccs3)c(Br)cc12)C1CC1 [SB-742251] = rule met
COc1cc2ncnc(Nc3ccc4nc(-c5ccccc5)[nH]c4c3)c2cc1OC.Cl [GW282450] = rule met

# input Quick check, %Inh >= 1%? "COC(=O)c1c(-c2ccccc2)c2cc(C(=O)O)ccc2c(=O)n1Cc1ccccc1"
# output rule not met

# input Quick check, %Inh >= 1%? CS(=O)(=O)c1ccc(-c2nc3n(c2-c2ccncc2)CCC3)cc1 [SKF-105942]
# output rule met

# input Quick check, %Inh >= 1%? Cl.c1ccc(-c2n[nH]cc2-c2ccnc(-c3ccc(CN4CCOCC4)cc3)c2)nc1 [GW776245]
# output rule not met

# input Quick check, %Inh >= 1%? Nc1nc(-c2nccs2)c(-c2ccnc3ccccc23)s1 [GW693542]
# output rule not met
